target-or-system: Fyn (UniProt P06241)
Sequence (P06241 whole entry, looked up): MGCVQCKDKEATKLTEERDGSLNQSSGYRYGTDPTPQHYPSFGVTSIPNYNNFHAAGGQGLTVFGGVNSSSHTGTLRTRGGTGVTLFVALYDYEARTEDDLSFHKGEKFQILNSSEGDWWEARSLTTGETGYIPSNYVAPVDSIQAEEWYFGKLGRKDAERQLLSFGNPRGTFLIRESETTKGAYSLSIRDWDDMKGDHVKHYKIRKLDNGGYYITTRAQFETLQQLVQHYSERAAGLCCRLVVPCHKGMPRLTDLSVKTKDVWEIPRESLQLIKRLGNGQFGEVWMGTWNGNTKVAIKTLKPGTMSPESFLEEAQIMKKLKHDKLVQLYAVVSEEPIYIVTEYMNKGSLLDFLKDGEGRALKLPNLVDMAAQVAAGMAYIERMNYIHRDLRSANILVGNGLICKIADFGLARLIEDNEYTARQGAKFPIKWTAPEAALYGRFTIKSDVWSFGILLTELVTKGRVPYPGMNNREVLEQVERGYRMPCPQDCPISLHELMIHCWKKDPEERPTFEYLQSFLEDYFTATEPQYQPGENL
assay-details: phosphorylation enrichment, bacterial display (enrichment ratio); higher = better substrate or ligand; peptides without Tyr show the background;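 also: 11-residue human phosphosite peptides and single-mutation variants displayed on the E. coli surface, counted by deep sequencing, each peptide's frequency after selection divided by its frequency in the unselected input library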;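 also: frequency after pTyr selection over input frequency; kinase dosed for 20-30% of maximal phosphorylation in three min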
Kind request: treat 0.5 as inclusive, so phosphorylation enrichment at 0.5 or higher is Satisfied, anything lower is Not satisfied.

Given FSPFDYQPCLA [TNS1_Y798_YF] , state whether its phosphorylation enrichment is at least 0.5. Satisfied

Given the entry TVSQPYSFIEF [SEC22B_Y110_R108Q] , answer whether its phosphorylation enrichment meets or surpasses 0.5. Satisfied

Decide: is the reported value of phosphorylation enrichment for CSGNCYLDIRP [FBN1_Y1535_R1530C] equal to or greater than 0.5? Not satisfied

Reported phosphorylation enrichment at or above 0.5? SYCYRYRCAAR [SUMF1_Y344] Not satisfied

Check if phosphorylation enrichment >= 0.5 (inclusive). Item: SVTCTYSPALH [TP53_Y126_N131H] Satisfied

Determine whether measured phosphorylation enrichment meets or exceeds 0.5 for DGFTDYAEFAK [MCFD2_Y138_I136T_YF] Satisfied

Check if phosphorylation enrichment >= 0.5 (inclusive). Item: KMTGRYEMFAR [UPB1_Y362_YF] Not satisfied

Is the recorded value of phosphorylation enrichment equal to or greater than 0.5 for this sequence? DEDYLYREELA [POR_Y575] Satisfied

Exam item: decide whether the reported phosphorylation enrichment for QRRLVYYERGA [RYR1_Y245_G248R] is at least 0.5. Satisfied

Determine whether measured phosphorylation enrichment meets or exceeds 0.5 for PGPPGYCDSSQ [COL12A1_Y3043] Satisfied

Does the reported phosphorylation enrichment for EKMWTYMRSAE [GRIA4_Y695] fall at or above the 0.5 mark? Not satisfied

Can GDEVEYMSVSF [GCLC_Y53_L55S] be said to have phosphorylation enrichment at or above 0.5? Satisfied

Determine whether this sequence has phosphorylation enrichment no lower than 0.5: FDDDDYDMDFV [BLM_Y296_T298M] Satisfied

Can EEVKAYLDFRE [CHAC2_Y78] be said to have phosphorylation enrichment at or above 0.5? Satisfied

phosphorylation enrichment >= 0.5 for HKANEYYPVVI [ADAMTS18_Y764_L769I] ? Satisfied

Hello, I need to know if VRTGIYHGGEP [PIK3CA_Y361] has measured phosphorylation enrichment not below 0.5. Thanks! Satisfied

Can DLEKTYNTFRS [B4GALNT2_Y538_A533D_YF] be said to have phosphorylation enrichment at or above 0.5? Satisfied

Does the sequence QRIHNYFEHRF [HCN4_Y554_D553N_YF] have recorded phosphorylation enrichment that is 0.5 or more? Not satisfied

Identify whether the reported phosphorylation enrichment of the following sequence is 0.5 or greater: WYQTKYEELQV [KRT6B_Y360_I365V] Satisfied

Dear colleague, could you confirm whether LPVHFYGHVEH [PYGM_Y204] has phosphorylation enrichment at or above 0.5? Satisfied

Please check the record KGIDRYNPENL [EIF3K_Y21] and state if its phosphorylation enrichment is at or above 0.5. Not satisfied

Decide: is the reported value of phosphorylation enrichment for RYLKDYGEFEV [GINS1_Y156_C152Y] equal to or greater than 0.5? Satisfied

Please check the record FLNSSYINIST [IL23R_Y178_T175N_YF] and state if its phosphorylation enrichment is at or above 0.5. Not satisfied

Record EIVFVYVKKRS [DNAI2_Y7_YF] ; criterion: phosphorylation enrichment no lower than 0.5. Met? Not satisfied

Is reported phosphorylation enrichment greater than or equal to 0.5 here: GLRFGYGGLGG [KRTAP20-2_Y15_V17G_YF] Not satisfied

Confirm if phosphorylation enrichment reported for the sequence VHNLNYFKKTT [FGFR3_Y647_D646N_YF] is 0.5 or above. Not satisfied

Is reported phosphorylation enrichment greater than or equal to 0.5 here: QYQEKYKQVEQ [HCN4_Y531] Satisfied

Evaluate KGSEGYLAATY [NF1_Y2503] : phosphorylation enrichment at minimum 0.5? Not satisfied
